Target: T1, His-tagged, full-length PCSK9 (human, UniProt A8T644 31-152; Q8NBP7 153-692)
T1 construct: Target protein of the PCSK9/EGF(A) TR-FRET assay (10 nM); also called His-PCSK9; proprotein convertase subtilisin/kexin type 9
T1 sequence (A8T644 31-152 limits assumed, chain 1 of 2): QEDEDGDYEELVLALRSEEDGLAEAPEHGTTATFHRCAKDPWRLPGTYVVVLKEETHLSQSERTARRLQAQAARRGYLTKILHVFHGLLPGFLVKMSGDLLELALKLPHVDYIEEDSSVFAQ
T1 sequence (A8T644 other isoform, or with tags, fused parts or gaps limits assumed, chain 2 of 2): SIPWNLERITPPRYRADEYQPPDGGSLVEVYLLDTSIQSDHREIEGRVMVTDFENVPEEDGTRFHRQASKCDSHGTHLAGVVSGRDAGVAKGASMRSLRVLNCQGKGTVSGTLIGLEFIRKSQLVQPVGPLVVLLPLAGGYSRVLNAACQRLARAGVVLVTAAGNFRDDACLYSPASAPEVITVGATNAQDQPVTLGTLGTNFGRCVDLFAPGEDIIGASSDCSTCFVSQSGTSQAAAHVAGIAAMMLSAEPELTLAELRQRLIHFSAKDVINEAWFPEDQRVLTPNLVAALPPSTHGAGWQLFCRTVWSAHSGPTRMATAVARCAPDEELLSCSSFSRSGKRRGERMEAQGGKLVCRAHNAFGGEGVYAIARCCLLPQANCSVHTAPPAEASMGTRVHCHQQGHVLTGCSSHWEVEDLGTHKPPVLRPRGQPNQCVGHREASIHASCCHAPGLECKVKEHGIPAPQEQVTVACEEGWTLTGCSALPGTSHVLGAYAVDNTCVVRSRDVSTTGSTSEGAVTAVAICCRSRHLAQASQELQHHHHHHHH
Assay: TR-FRET competition; competitor EGF(A)-Fc on His-PCSK9
Numbered stars: 1 amine (or outer) side, 2 acyl side, 3 side chain; on linkers, the order of the positions; unused ones are H or OH. Bridge positions count the residues as written; N and C are the ends. Square brackets hold non-standard residues; d marks the D form. NH(CH2)9CO = O=C(CCCCCCCCCN[*:1])[*:2]
Measured IC50, listed per entry.

In plain terms, Ac-CRLPWNLQRIGGGC-NH2 (disulfide 1-14; SMILES CC[C@H](C)[C@@H]1NC(=O)[C@H](CCCNC(=N)N)NC(=O)[C@H](CCC(N)=O)NC(=O)[C@H](CC(C)C)NC(=O)[C@H](CC(N)=O)NC(=O)[C@H](Cc2c[nH]c3ccccc23)NC(=O)[C@@H]2CCCN2C(=O)[C@H](CC(C)C)NC(=O)[C@H](CCCNC(=N)N)NC(=O)[C@@H](NC(C)=O)CSSC[C@@H](C(N)=O)NC(=O)CNC(=O)CNC(=O)CNC1=O) [Compound 81] has a documented IC50 of > 50 µM

Shifting focus to the binder that follows.
In plain terms, Ac-CRLPWNLQR[NH(CH2)9CO]C-NH2 (disulfide 1-11; SMILES CC(=O)N[C@H]1CSSC[C@@H](C(N)=O)NC(=O)CCCCCCCCCNC(=O)[C@H](CCCNC(=N)N)NC(=O)[C@H](CCC(N)=O)NC(=O)[C@H](CC(C)C)NC(=O)[C@H](CC(N)=O)NC(=O)[C@H](Cc2c[nH]c3ccccc23)NC(=O)[C@@H]2CCCN2C(=O)[C@H](CC(C)C)NC(=O)[C@H](CCCNC(=N)N)NC1=O) [Compound 84] has a documented IC50 of > 50 µM
